The reported measurements were obtained from patent US8513232B2.

Biological target: human H3 receptor (Homo sapiens, UniProt Q9Y5N1)
Construct: expressed in transfected cells
Sequence (Q9Y5N1 whole entry): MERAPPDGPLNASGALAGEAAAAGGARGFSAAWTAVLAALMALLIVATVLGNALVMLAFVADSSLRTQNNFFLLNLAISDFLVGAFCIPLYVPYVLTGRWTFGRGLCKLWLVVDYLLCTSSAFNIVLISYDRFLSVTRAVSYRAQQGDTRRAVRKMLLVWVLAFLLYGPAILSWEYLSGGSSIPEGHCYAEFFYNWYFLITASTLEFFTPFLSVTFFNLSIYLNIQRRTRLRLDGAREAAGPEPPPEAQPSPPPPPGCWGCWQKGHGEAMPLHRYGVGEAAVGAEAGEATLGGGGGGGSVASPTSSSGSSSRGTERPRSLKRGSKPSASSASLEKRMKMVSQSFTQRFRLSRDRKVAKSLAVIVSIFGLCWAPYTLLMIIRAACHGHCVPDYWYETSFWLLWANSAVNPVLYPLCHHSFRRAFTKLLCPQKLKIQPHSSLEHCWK
Assay: Human H3 radioligand binding ([3H]-N-alpha-methylhistamine, SPA)
Conditions: read-out: Human H3 Ki
Description: Methods: CHO cells stably expressing the human H3 receptor (GenBank: NM_007232) were harvested and cell pellets were frozen (−80° C.). […] Radioligand Binding. […] Non-specific binding was determined in the presence of 10 μM clobenpropit. Radioligand bound to receptor, and therefore in proximity to the scintillation beads, was measured using a MicroBeta scintillation counter.
readout_type: Ki

- compound: "OC1(c2ccc3c(c2)COC2(CCN(C4CCC4)CC2)O3)CCCCC1"
  reported_measurement: "< 200 nM"
- compound: "COc1ccc(-c2ccc3c(c2C)COC2(CCN(C4CCC4)CC2)O3)cn1"
  reported_measurement: "< 200 nM"
- compound: "CN1CC(c2ccc3c(c2)COC2(CCN(C4CCC4)CC2)O3)CCC1=O (centres unmarked)"
  reported_measurement: "< 200 nM"
- compound: "COc1cc(Oc2ccc3c(c2)CCC2(CCN(C4CCC4)CC2)O3)ccn1"
  reported_measurement: "< 200 nM"
- compound: "Cn1ccc(-c2ccc3c(c2)COC2(CCN(C4CCC4)CC2)O3)cc1=O"
  reported_measurement: "< 200 nM"

----------
Reported melting point is given for each of the following molecules.
readout_type: melting point

- line_notation: "COc1ccc(-c2ccc3c(c2)COC2(CCN(CCC4CCOCC4)CC2)O3)cn1"
  reported_measurement: "143 to 145 °C"
- line_notation: "Cc1ccc(-c2ccc3c(c2)COC2(CCN(C4CCC4)CC2)O3)c(C)n1"
  reported_measurement: "190 to 192 °C"
- line_notation: "Cc1ccccc1-c1ccc2c(c1)COC1(CCN(C3CCC3)CC1)O2"
  reported_measurement: "241 to 243 °C"
- line_notation: "CNC(=O)c1ccc(Nc2ccc3c(c2)COC2(CCN(C4CCC4)CC2)O3)nc1"
  reported_measurement: "211 to 213 °C"
- line_notation: "Cc1ccc2nc(C)n(-c3ccc4c(c3)COC3(CCN(C5CCC5)CC3)O4)c(=O)c2c1"
  reported_measurement: "149 to 152 °C"
- line_notation: "O=C(CCc1ccc2c(c1)COC1(CCN(C3CCC3)CC1)O2)NC1CCOCC1"
  reported_measurement: "167 to 169 °C"
- line_notation: "CC(=O)N(Cc1ccsc1)c1ccc2c(c1)COC1(CCN(C3CCC3)CC1)O2"
  reported_measurement: "101 to 102 °C"
- line_notation: "O=C(NC1CCOCC1)c1ccc(-c2ccc3c(c2)COC2(CCN(C4CCC4)CC2)O3)cc1"
  reported_measurement: "216 to 218 °C"
- line_notation: "O=C1N(c2ccccc2)CCN1c1ccc2c(c1)COC1(CCN(C3CCC3)CC1)O2"
  reported_measurement: "195 to 197 °C"
- line_notation: "CNC(=O)c1ccc(-c2ccc3c(c2)CCC2(CCN(C4CCC4)CC2)O3)cc1C"
  reported_measurement: "94.7 to 95.6 °C"
- line_notation: "Cc1cnccc1C(=O)Nc1ccc2c(c1)COC1(CCN(C3CCC3)CC1)O2"
  reported_measurement: "209 to 210 °C"
- line_notation: "CNC(=O)c1ccc(-c2ccc3c(c2)COC2(CCN(C4CCC4)CC2)O3)c(C)c1"
  reported_measurement: "210 to 211 °C"
- line_notation: "CCS(=O)(=O)C1CCN(c2ccc3c(c2)COC2(CCN(C4CCC4)CC2)O3)CC1"
  reported_measurement: "147.7 to 149.8 °C"
- line_notation: "O=C1CCN(c2ccc3c(c2)CCC2(CCN(C4CCC4)CC2)O3)CC1"
  reported_measurement: "> 247 °C (dec.)"
- line_notation: "O=C(NC1CCOCC1)c1ccc(-c2ccc3c(c2)CCC2(CCN(C4CCC4)CC2)O3)cc1"
  reported_measurement: "205 to 207 °C"
- line_notation: "c1cc(Oc2ccc3c(c2)CCC2(CCN(C4CCC4)CC2)O3)ccn1"
  reported_measurement: "266 to 268 °C"
- line_notation: "c1cc(CNc2ccc3c(c2)COC2(CCN(C4CCC4)CC2)O3)cs1"
  reported_measurement: "101 to 102 °C"

----------
Molecular target: rat histamine H3 receptor (Rattus norvegicus, UniProt Q9QYN8)
Construct: encoding the entire 445-amino-acid rat histamine H3 receptor; expressed in transfected cells; membrane preparation
Sequence (Q9QYN8 whole entry): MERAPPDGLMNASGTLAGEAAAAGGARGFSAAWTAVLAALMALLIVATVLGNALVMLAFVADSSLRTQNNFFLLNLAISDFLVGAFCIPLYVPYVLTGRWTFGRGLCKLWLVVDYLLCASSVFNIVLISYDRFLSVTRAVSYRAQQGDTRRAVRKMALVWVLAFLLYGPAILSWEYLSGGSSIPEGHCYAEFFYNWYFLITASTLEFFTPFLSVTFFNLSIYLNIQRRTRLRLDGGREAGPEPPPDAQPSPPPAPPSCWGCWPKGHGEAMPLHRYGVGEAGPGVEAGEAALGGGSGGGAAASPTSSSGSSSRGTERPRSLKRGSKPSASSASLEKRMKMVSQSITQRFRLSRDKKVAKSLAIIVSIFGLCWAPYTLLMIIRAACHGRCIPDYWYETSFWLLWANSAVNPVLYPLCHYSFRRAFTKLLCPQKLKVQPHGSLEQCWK
Test: Rat H3 radioligand binding ([3H]-N-alpha-methylhistamine, SPA)
Details: Table C; rat H3 binding; read-out: Rat H3 Ki
pKi: −log10 of the molar value.

- line_notation: "CN1CCN(c2ccc3c(c2)CCC2(CCN(C4CCC4)CC2)O3)CC1"
  pKi: "> 6.70"
- line_notation: "COCCNC(=O)c1ccc(Oc2ccc3c(c2)CCC2(CCN(C4CCC4)CC2)O3)nc1"
  pKi: "> 6.70"
- line_notation: "CNC(=O)c1ccc(Oc2ccc3c(c2)CCC2(CCN(C4CCC4)CC2)O3)nc1"
  pKi: "> 6.70"
- line_notation: "NC(=O)c1ccc(N2CCN(c3ccc4c(c3)CCC3(CCN(C5CCC5)CC3)O4)CC2)nc1"
  pKi: "> 6.70"

----------
Reported pKi is given for each of the following compounds.
Molecular target: rat histamine H3 receptor (Rattus norvegicus)
Construct: encoding the entire 445-amino-acid rat histamine H3 receptor; expressed in transfected cells; membrane preparation
Assay: Rat H3 radioligand binding ([3H]-N-alpha-methylhistamine, SPA)
Conditions: rat H3 binding, Table D; read-out: Rat H3 Ki
Experimental: Cell line development and membrane preparation. […] Radioligand Binding. […] Non-specific binding was determined in the presence of 10 μM clobenpropit. Radioligand bound to receptor, and therefore in proximity to the scintillation beads, was measured using a MicroBeta scintillation counter.
pKi: −log10 of the molar value.

- compound: "COc1cc(-c2ccc3c(c2)COC2(CCN(C4CCC4)CC2)O3)ccc1C(=O)O [Example 624]"
  pKi: "6.00 to 6.70"
- compound: "CNC(=O)c1ccc(-c2ccc3c(c2)COC2(CCN(C4CCC4)CC2)O3)cc1OC [Example 633]"
  pKi: "> 6.70"
- compound: "COc1ncc(-c2ccc3c(c2)COC2(CCN(C4CCC4)CC2)O3)cc1CO [Example 768]"
  pKi: "> 6.70"
- compound: "O=c1ccc(-c2ccc3c(c2)COC2(CCN(C4CCC4)CC2)O3)cn1CC(F)(F)F [Example 710]"
  pKi: "> 6.70"
- compound: "O=c1c(Cl)c(-c2ccc3c(c2)COC2(CCN(C4CCC4)CC2)O3)ccn1CC(F)(F)F [Example 784]"
  pKi: "> 6.70"
- compound: "CS(=O)(=O)c1ccc(COc2ccc3c(c2)CCC2(CCN(C4CCC4)CC2)O3)cc1 [Example 617]"
  pKi: "> 6.70"
- compound: "O=c1ccc(-c2ccc3c(c2)COC2(CCN(CC4CCOCC4)CC2)O3)c[nH]1 [Example 722]"
  pKi: "< 6.00"
- compound: "Cc1c(-c2ccc3c(c2)COC2(CCN(C4CCC4)CC2)O3)cn(CC(F)(F)F)c(=O)c1C [Example 783]"
  pKi: "> 6.70"

----------
Reported melting point is given for each of the following compounds.

- line_notation: "c1cnc(N2CCN(c3ccc4c(c3)CCC3(CCN(C5CCC5)CC3)O4)CC2)cn1"
  melting point: "168 to 169 °C"
- line_notation: "CC(C)C(=O)N1CCN(c2ccc3c(c2)CCC2(CCN(C4CCC4)CC2)O3)CC1"
  melting point: "173 to 175 °C"
- line_notation: "CN1CCN(c2ccc3c(c2)CCC2(CCN(C4CCC4)CC2)O3)C1=O"
  melting point: "228 to 230 °C"

----------
Reported melting point is given for each of the following molecules.
readout_type: melting point

- molecule: "Cc1cc(=O)n(C(C)C)cc1-c1ccc2c(c1)COC1(CCN(C3CCC3)CC1)O2 [Example 759]"
  reported_measurement: "65 to 68 °C"
- molecule: "CS(=O)(=O)c1ccc(-c2ccc3c(c2)COC2(CCN(C4CCC4)CC2)O3)s1 [Example 652]"
  reported_measurement: "159 to 161 °C"
- molecule: "CC(=O)N1CCC(Oc2ccc3c(c2)CCC2(CCN(C4CCC4)CC2)O3)CC1 [Example 426]"
  reported_measurement: "227 to 229 °C"
- molecule: "NC(=O)COc1ccc2c(c1)CCC1(CCN(C3CCC3)CC1)O2 [Example 700]"
  reported_measurement: "121 to 125 °C"
- molecule: "C1=C(c2ccc3c(c2)COC2(CCN(C4CCC4)CC2)O3)CCSC1 [Example 466]"
  reported_measurement: "162 to 163 °C"

----------
Reported melting point is given for each of the following compounds.

- compound: "COC1CCN(C(=O)c2ccc(-c3ccc4c(c3)COC3(CCN(C5CCC5)CC3)O4)cc2)CC1"
  melting point: "94 to 96 °C"
- compound: "Cn1cc(-c2ccc3c(c2)COC2(CCN(C4CCC4)CC2)O3)c(CO)cc1=O"
  melting point: "120 to 123 °C"
- compound: "O=C(C1CC1)N1CCC(COc2ccc3c(c2)CCC2(CCN(C4CCC4)CC2)O3)CC1"
  melting point: "128 to 130 °C"
- compound: "CC(C)n1ccc(-c2ccc3c(c2)COC2(CCN(C4CCC4)CC2)O3)cc1=O"
  melting point: "218 to 220 °C"
- compound: "COCCN(C)C(=O)c1c(F)cc(-c2ccc3c(c2)COC2(CCN(C4CCC4)CC2)O3)cc1F"
  melting point: "78 to 80 °C"
- compound: "OC1(c2ccc3c(c2)COC2(CCN(C4CCC4)CC2)O3)CCC1"
  melting point: "64 to 66 °C"
- compound: "O=C(c1ccc(-c2ccc3c(c2)COC2(CCN(C4CCC4)CC2)O3)cc1F)N1CC[C@H](O)C1"
  melting point: "99.5 to 100.5 °C"
- compound: "COC1(c2ccc3c(c2)COC2(CCN(C4CCC4)CC2)O3)CCC(F)(F)CC1"
  melting point: "116 to 118 °C"
- compound: "CNC(=O)c1ccc(-c2ccc3c(c2)COC2(CCN(C4CCC4)CC2)O3)cc1"
  melting point: "198 to 199 °C"
- compound: "CN(C)S(=O)(=O)c1ccc(-c2ccc3c(c2)COC2(CCN(C4CCC4)CC2)O3)s1"
  melting point: "189 to 192 °C"
- compound: "Cc1cc(=O)n(C)cc1-c1ccc2c(c1)COC1(CCN(C3CCC3)CC1)O2"
  melting point: "151 to 154 °C"
- compound: "O=C1N(CCO)CCN1c1ccc2c(c1)COC1(CCN(C3CCC3)CC1)O2"
  melting point: "152 to 155 °C"
- compound: "CN(C)C(=O)c1cccc2c1ccn2-c1ccc2c(c1)COC1(CCN(C3CCC3)CC1)O2"
  melting point: "76 to 80 °C"
- compound: "CN(C)C(=O)c1ccccc1Nc1ccc2c(c1)COC1(CCN(C3CCC3)CC1)O2"
  melting point: "50 to 53 °C"
- compound: "CC(=O)N(Cc1ccncc1)c1ccc2c(c1)COC1(CCN(C3CCC3)CC1)O2"
  melting point: "63 to 65 °C"
- compound: "O=C(c1ccc(-c2ccc3c(c2)OC2(CCN(C4CCC4)CC2)OC3)cc1)N1CCOCC1"
  melting point: "55 °C"
- compound: "c1ccc(COc2ccc3c(c2)CCC2(CCN(C4CCC4)CC2)O3)cc1"
  melting point: "102 to 103 °C"
- compound: "c1cc2c(cc1C1CCOC1)COC1(CCN(C3CCC3)CC1)O2 (stereo not shown)"
  melting point: "249 to 250 °C"
- compound: "CS(=O)(=O)c1cncc(-c2ccc3c(c2)COC2(CCN(C4CCC4)CC2)O3)c1"
  melting point: "148 to 149 °C"
- compound: "O=C(N1CCOCC1)N1CCN(c2ccc3c(c2)CCC2(CCN(C4CCC4)CC2)O3)CC1"
  melting point: "292 to 294 °C"
- compound: "COc1nc(C)c(-c2ccc3c(c2)COC2(CCN(C4CCC4)CC2)O3)cc1C#N"
  melting point: "215 to 217 °C"
- compound: "FC(F)(F)c1ccc(N2CCN(c3ccc4c(c3)CCC3(CCN(C5CCC5)CC3)O4)CC2)nc1"
  melting point: "212 to 213 °C"
